Reported fold change (FC) values for the following molecules.
Test system: Salmonella typhimurium
Assay: Genotoxicity against Salmonella typhimurium TA98 assessed as fold increase in revertants at 2.5 mg/ml after 90 mins by Ames MPF test in absence of S9 fraction relative to baseline
Format: toxicity, organism-based
Settings: salmonella enterica subsp. enterica serovar typhimurium, 1.5 h
// no unit string in output, number only

1) Cn1nnnc1SCC(=O)N/N=C/c1ccc(O)cc1 ... 0.13
2) CN(C)c1ccc(/C=N/NC(=O)CSc2nnnn2C)cc1 ... 0

Here is another molecule to look at.
Prompt: For Salmonella typhimurium, provide fold change (FC) of `Cn1nnnc1SCC(=O)N/N=C/c1ccccc1F` please.
Completion: 0.95

====

Test system: Salmonella typhimurium
Test: Genotoxicity against Salmonella typhimurium TA100 assessed as fold increase in revertants at 0.3125 mg/ml after 90 mins by Ames MPF test in absence of S9 fraction relative to baseline
Format: toxicity, organism-based
Conditions: salmonella enterica subsp. enterica serovar typhimurium, 1.5 h
READOUT NAME: fold change (FC)
// no unit string in output, number only

1) Cn1nnnc1SCC(=O)N/N=C/c1ccccc1F ... 0.06
2) Cn1nnnc1SCC(=O)N/N=C/c1ccccc1[N+](=O)[O-] ... 1.67
3) CN(C)c1ccc(/C=N/NC(=O)CSc2nnnn2C)cc1 ... 1.19

Here is another compound to look at.
Prompt: Give the measured fold change (FC) of `Cn1nnnc1SCC(=O)N/N=C/c1ccc(O)cc1` .
Completion: 0.41
